Data origin: ChEMBL document CHEMBL1961873

system.name: Ribosomal protein S6 kinase alpha-6 (Homo sapiens);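 also: reported value is the mean inhibition of RSK4, from the GSK PKIS kinase inhibitor screen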
assay.context: at 0.1 µM
In this section, each of the compounds is paired with its reported inhibition.
experimental.endpoint: inhibition (%)

>>> observed_result("Nc1nc(-c2ccc3c(c2)C(=Cc2cc(Br)c(O)c(Br)c2)C(=O)N3)cs1")
-0.07
>>> observed_result("COc1ccccc1Nc1ncc(-c2ccccc2)o1")
0.08
>>> observed_result("CCCN1CCC(Oc2cc(Nc3nc(Nc4cccc(F)c4C(N)=O)c4cc[nH]c4n3)c(OC)cc2Cl)CC1")
1.35
>>> observed_result("COc1cc(C=NNc2ncnc3c2cnn3-c2ccccc2)ccc1O")
0.33
>>> observed_result("COC(=O)Nc1nc2cc(Oc3ccc(NC(=O)Nc4cccc(C(=O)O)c4)cc3)ccc2[nH]1")
0.08
>>> observed_result("O=C(Nc1n[nH]c2nc(-c3ccco3)c(Br)cc12)C1CC1")
0.15
>>> observed_result("CC(C)=Cc1cccc2c1/C(=N/Nc1ccc(S(N)(=O)=O)cc1)C(=O)N2")
1.61
>>> observed_result("CCn1c(-c2nonc2N)nc2cncc(C(=O)N3CCNCC3)c21")
1.32
>>> observed_result("Nc1ncnc2occ(-c3ccc(NC(=O)Nc4cccc(C(F)(F)F)c4)cc3)c12")
-0.29
>>> observed_result("CS(=O)(=O)CCN(CC#N)Cc1ccc(-c2ccc3ncnc(Nc4ccc(OCc5cccc(F)c5)c(Cl)c4)c3c2)o1")
-0.25
>>> observed_result("CCn1c(-c2nonc2N)nc2c(C#CC(C)(C)O)nc(CN3CCCC3)cc21")
0.28
